- tested-on: T1, SH2 domain of Crkl protein (residues 1-111), wild type (UniProt P46109 1-111)
- T1 construct: Crkl adaptor protein, SH2 domain, residues 1-111; Subcloned in pET28b+; all experiments were done on the N-terminally His-tagged protein; also called Crkl-SH2; Crkl SH2 domain; source: E. coli BL21 (DE3), purified (HisTrap nickel column, desalting); not shown: His tag, N-terminal, kept
- experimental-protocol: stopped-flow fluorescence kinetics (FRET); dansyl-Pax112-123 constant at 2 μM mixed with Crkl-SH2 2 to 10 μM (pseudo-first-order, kon); koff by displacement of the preincubated 2 µM complex with excess non-dansylated Pax112-123 (30 μM); 283 K; 50 mM TrisHCl pH 9.0, 0.5 M NaCl
- details: both partners purified
Square brackets hold non-standard residues; d marks the D form. Ends that are not written are not given here. * marks the point of attachment. pY = N[C@@H](Cc1ccc(OP(=O)(O)O)cc1)C(=O)O; Dansyl = CN(C)c1cccc2c(S(=O)(=O)*)cccc12

binder	Kd (nM)
Dansyl-GEEEHV[pY]SFPNK (The dansyl group is the FRET acceptor of Trp14 of the SH2 domain; source: synthetic peptide, bought: GenScript) [dansylated Pax_(112–123) peptide (Dans-GEEEHV-pY-SFPNK)]	2500
